Entries and their measured PBM binding z-score follow.
test system: PPARg:RXRa 90nM:30nM, anti-RXR (NR concentration 90 nM, RXRa partner concentration 30 nM); assay: PBM binding z-score (relative to random genomic background probes); higher = stronger binding; sequences stand for … in GC…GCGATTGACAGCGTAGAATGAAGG

Chain | PBM binding z-score
CCGACTGGGGCAGGAAGGTTACCATACCATCCGG | -0.0165
GGAACGAGGGCAAAGTTGCTAGCATCTGTCGACG | 5.06
TTACCAAGGTGAAGGTTGTTGATCCCTCTGTAGA | 1.96
AGTCAAAGTTCACTAGCTAACGTAAGATTCAGCT | 4.54
GGAACGAGGGCAAGTTGATACCAGAGTTTGATGG | 0.594
ACTAGCAGGCCAATGGTCACTCAAGATTAGTCCG | 2.79
GCTGCTAGGTCAGCTGATGGTCAGCTAAAGCTCG | 0.544
ATATGTTGGTTAAGGGTCATTCAGGTTGGTTCGC | 7.73
ATCTCTCGGTAAAAGTTCAGTGAATCCCGAGGAT | 6.34
GATACAGGCTCAAGGCCAGAGTACGCGTATTGAT | -0.0733
GCTAGTTGGTAAGTAAAAGGTCACACACCGGTCG | 6.92
CCGACTGGGGCAAAGCTTACCATACTCAGTACGA | 2.26
ATCTCTAGGTAAATTTCAGTGAAAGATCGATAGA | 0.833
ATCTCTAGGTAACTAAGTTCAGTGAATGCCGAAC | 0.816
AGAATGAGGTTATTAAGATCAGGCAATTGCGGTC | 1.18
ACTATTAGTTGACATAGGGCAACCGATACGACGC | 1

Measured values drawn from the supplement of paper PMC6555819 for this set.
